# measurement-target: T1, LIN7B, Q9HAP6
# T1 sequence (Q9HAP6 88-185, limits assumed, looked up): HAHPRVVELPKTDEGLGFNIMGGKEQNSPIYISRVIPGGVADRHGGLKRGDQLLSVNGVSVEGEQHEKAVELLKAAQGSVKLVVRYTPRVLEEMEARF
# assay-remarks: holdup assay
# Set-up: key: below the threshold = too weak to quantify, mostly under pKd 3.1 to 4
# particulars: plain residues with an end cap or a label only (N-terminal biotin on a linker: ado-ado)
metric: pKd

binder: VKPQVSESKL [ACOT8, O14734]
metric: pKd
meas-value: 3.59
--
binder: ETQVTAETVI [TMEM225B, P0DP42]
metric: pKd
meas-value: below the threshold
--
binder: EVNETDDTKM [KCNJ1, P48048]
metric: pKd
meas-value: below the threshold
--
binder: NLSIEKETKL [ASNSD1, Q9NWL6]
metric: pKd
meas-value: 4.47
--
binder: TLPRKRMSSI [GPRC6A, Q5T6X5]
metric: pKd
meas-value: 3.75
--
binder: GQEEQVTTRL [TRPC5, Q9UL62]
metric: pKd
meas-value: below the threshold
--
binder: LKVPPEERLI [CRB2, Q5IJ48]
metric: pKd
meas-value: below the threshold
--
binder: SKSNFGSEPL [KIF17, Q9P2E2]
metric: pKd
meas-value: below the threshold
--
binder: DTTVPESEDL [MYOZ2, Q9NPC6]
metric: pKd
meas-value: below the threshold
--
binder: QSLNRMEYIV [JAG1, P78504]
metric: pKd
meas-value: below the threshold
--
binder: QGLAERISVL [PRKD2, Q9BZL6]
metric: pKd
meas-value: below the threshold
--
binder: QHKTQLQTLI [BPIFA2, Q96DR5]
metric: pKd
meas-value: below the threshold
--
binder: CLREWCDAFL [BANF1, O75531]
metric: pKd
meas-value: 3.94
--
binder: RRLPGKETMA [GRIK2, Q13002]
metric: pKd
meas-value: 3.64
--
binder: LPHPHSTTRV [NLGN2, Q8NFZ4]
metric: pKd
meas-value: 3.58
--
binder: EVEEFPETSV [TRPV3, Q8NET8]
metric: pKd
meas-value: 4.3
--
binder: VDSTVKVWTC [TRAF7, Q6Q0C0]
metric: pKd
meas-value: 3.64
--
binder: HSGYRLNDYV [CLDN14, O95500]
metric: pKd
meas-value: below the threshold
--
binder: YRLAQESGLV [ABCC6, O95255]
metric: pKd
meas-value: below the threshold
--
binder: DDPSTAETVL [ABCA7, Q8IZY2]
metric: pKd
meas-value: 3.89
--
binder: PAPSSGKDYV [CLDN1, O95832]
metric: pKd
meas-value: below the threshold
--
binder: QMNQTLPVQV [EPHB3, P54753]
metric: pKd
meas-value: below the threshold
--
binder: QSARLWETSI [ADAM22, Q9P0K1]
metric: pKd
meas-value: 4.35
--
binder: PRAEAEDSFL [PDGFRB, P09619]
metric: pKd
meas-value: below the threshold
--
binder: SGSLKLMTTV [DACT1, Q9NYF0]
metric: pKd
meas-value: below the threshold
--
binder: LPHGHSTTRV [NLGN4X, Q8N0W4]
metric: pKd
meas-value: 3.66
--
binder: VNKSKLLTDV [KCNA1, Q09470]
metric: pKd
meas-value: 3.78
--
binder: RRRESYSTTV [EVI5, O60447]
metric: pKd
meas-value: below the threshold
--
binder: QGPVETESVV [SLC45A4, Q5BKX6]
metric: pKd
meas-value: below the threshold
--
binder: SARSRLSSNL [HCN2, Q9UL51]
metric: pKd
meas-value: below the threshold
--
binder: SAKVRTVTSV [RASL11B, Q9BPW5]
metric: pKd
meas-value: below the threshold
--
binder: PLSPEQPTKL [TRIM50, Q86XT4]
metric: pKd
meas-value: below the threshold

Where these numbers come from: paper PMC9482650
